# System: Pseudomonas aeruginosa
# TEST_PROTOCOL: microbe, parasite or virus in culture
# CONDITION_INFO: ATCC 27853, 18 h, ASSAY_TEST Inhibition of Bacterial Growth, detection method Absorption (OD600), MEDIA CAMHB, plate type 384well, NBS, CORNING #3640
# Description: Antibacterial activity against Pseudomonas aeruginosa ATCC 27853 (CO-ADD:GN_042); MIC in CAMBH media using NBS plates, by OD(600)
For each entry below, report its MIC value.

Consider the reported MIC for these compounds:
COMPOUND	MIC
Cl.O=C(Nc1ccc(-c2n[nH]c(=S)o2)cc1)c1cn(C2CC2)c2cc(N3CCNCC3)c(F)cc2c1=O	32 µg/mL
CC1COc2c(N3CCN(C)CC3)c(F)cc3c(=O)c(C(=O)Nc4ccc(-c5n[nH]c(=S)o5)cc4)cn1c23.Cl (centres undefined)	≤ 0.25 µg/mL
CC(O)C1C(=O)N2C(C(=O)Nc3ccc(-c4n[nH]c(=S)o4)cc3)=C(SC3CNC(C(=O)N(C)C)C3)C(C)C12.Cl (centres undefined)	> 32 µg/mL

Now take the following compound into account.
Lookup: Requested field: MIC. Item: COc1c(N2CC3CCCNC3C2)c(F)cc2c(=O)c(C(=O)Nc3ccc(-c4n[nH]c(=S)o4)cc3)cn(C3CC3)c12.Cl (centres undefined)
Found: 4 µg/mL
